Test system: MDCKII-MDR1 cells
Test summary: MDCKII-MDR1 permeability
Run conditions: MDCKII-MDR1
Attribute measured: efflux (P-gp), in words

Smi	Attribute measured	Result
COc1cc(Cl)ccc1Nc1c(C#N)cnc2cc(OCCON3CCN(C)CC3)c(OC)cc12	efflux (P-gp), in words	reduced efflux ratios
COc1cc(Nc2c(C#N)cnc3cc(OCCON4CCN(C)CC4)c(OC)cc23)ccc1Cl	efflux (P-gp), in words	reduced efflux ratios

---

Test summary: Aqueous solubility
Run conditions: phosphate buffer, pH 7.4, aqueous buffer

Molecule	solubility kinetic at 2 h / µM
COc1cc(Nc2c(C#N)cnc3cc(OCCCN4CCN(C)CC4)c(OC)cc23)c(Cl)cc1Cl [Bosutinib, bosutinib, reference compound]	14
COc1cc(Nc2c(C#N)cnc3cc(OCCON4CCN(C)CC4)c(OC)cc23)c(F)cc1Cl	43

---

Test summary: Metabolic stability in mouse hepatocytes
Assay type: in vitro ADME
Run conditions: 60 min, read-out: Remaining Percentages
Entries and their remaining at 1 h values follow.

Compound	remaining at 1 h (%)
COc1ccc(CCN(C)CCCC(C#N)(c2ccc(OC)c(OC)c2)C(C)C)cc1OC (centres unmarked) [Verapamil, reference compound]	1.24
COc1cc(Cl)ccc1Nc1c(C#N)cnc2cc(OCCON3CCN(C)CC3)c(OC)cc12 [Compound 20]	13.3

---

Test summary: Plasma protein binding by equilibrium dialysis, human plasma
Assay type: in vitro ADME
Run conditions: human plasma; 360 min, 5 µM
Listed here: items and their measured % Unbound.

Compound	% Unbound
COc1cc(Nc2c(C#N)cnc3cc(OCCON4CCN(C)CC4)c(OC)cc23)c(F)cc1Cl	5.58%
CC(=O)N1CCN(c2ccc(OCC3COC(Cn4ccnc4)(c4ccc(Cl)cc4Cl)O3)cc2)CC1 (stereo not drawn)	0.80%
COc1cc2c(Nc3cccc(OC)c3F)c(C#N)cnc2cc1OCCON1CCN(C)CC1	12.97%
COc1cc2c(Nc3cccc(OC)c3Cl)c(C#N)cnc2cc1OCCON1CCN(C)CC1	7.37%
COc1cc(Nc2c(C#N)cnc3cc(OCCCN4CCN(C)CC4)c(OC)cc23)c(Cl)cc1Cl [Bosutinib, bosutinib, reference compound]	4.52%
COc1cc(Cl)ccc1Nc1c(C#N)cnc2cc(OCCON3CCN(C)CC3)c(OC)cc12	7.73%

---

Target or system: BCR-ABL1 T315I (Homo sapiens, UniProt P00519, T315I)
Construct: BCR (fusion partner, as the printed name BCR-ABL1 says)
Test summary: KinaseProfiler radiometric kinase assay, BCR-ABL1 T315I
Run conditions: [ATP] = 10 μM; mean of n = 2
Attribute measured: IC50 (nM)

Smi	Attribute measured	Result
COc1cc(Nc2c(C#N)cnc3cc(OCCON4CCN(C)CC4)c(OC)cc23)c(F)cc1Cl	IC50	166

---

Test summary: Plasma protein binding by equilibrium dialysis, rat plasma
Format: in vitro ADME
Run conditions: plasma, 5 μM, read-out: fu, plasma %
Attribute measured: fraction unbound at 6 h, 5 µM

Smi	Attribute measured	Result
COc1cc(Nc2c(C#N)cnc3cc(OCCON4CCN(C)CC4)c(OC)cc23)c(F)cc1Cl	fraction unbound at 6 h, 5 µM	0.049

---

Listed next: entries and their corresponding Efflux Ratio.
System: Caco-2 cells
Test summary: Caco-2 permeability
Run conditions: Papp (b − a/a − b)

Smi	Efflux Ratio
COc1cc(Cl)ccc1Nc1c(C#N)cnc2cc(OCCON3CCN(C)CC3)c(OC)cc12	6.24
COc1cc(Nc2c(C#N)cnc3cc(OCCON4CCN(C)CC4)c(OC)cc23)c(F)cc1Cl	6.4
COc1cc2c(Nc3cccc(OC)c3Cl)c(C#N)cnc2cc1OCCON1CCN(C)CC1	3.58
COc1cc2c(Nc3cccc(OC)c3F)c(C#N)cnc2cc1OCCON1CCN(C)CC1	12.36

---

Test summary: Metabolic stability in rat liver microsomes
Assay type: in vitro ADME
Run conditions: rat liver microsomes; read-out: LMCIint (rate of metabolism)
Attribute measured: microsomal CLint at 1 µM (µL/min/mg)

Smi	Result
COc1cc(Nc2c(C#N)cnc3cc(OCCON4CCN(C)CC4)c(OC)cc23)c(F)cc1Cl	286

---

Property: remaining at 0.5 h; scope: individual molecules
Test summary: Metabolic stability in mouse hepatocytes
Type: in vitro ADME
Run conditions: 30 min, read-out: Remaining Percentages
Attribute measured: remaining at 0.5 h (%)

Molecule	Result
COc1ccc(CCN(C)CCCC(C#N)(c2ccc(OC)c(OC)c2)C(C)C)cc1OC (centres unmarked) [Verapamil, reference compound]	4.39
COc1cc(Cl)ccc1Nc1c(C#N)cnc2cc(OCCON3CCN(C)CC3)c(OC)cc12	28.6

---

Test summary: Metabolic stability in rat hepatocytes
Assay type: in vitro ADME
Run conditions: rat hepatocytes; read-out: HEPCIint (rate of metabolism)
Attribute measured: hepatocyte CLint

Smi	Attribute measured	Result
COc1cc(Nc2c(C#N)cnc3cc(OCCON4CCN(C)CC4)c(OC)cc23)c(F)cc1Cl	hepatocyte CLint	113 µL/min/1e6 cells

---

Target or system: BCR-ABL1 Q252H (Homo sapiens, UniProt P00519, Q252H)
Construct: BCR (fusion partner, as the printed name BCR-ABL1 says)
Test summary: KinaseProfiler radiometric kinase assay, BCR-ABL1 Q252H
Run conditions: [ATP] = 10 μM; mean of n = 2
IC50 listing for selected molecules.

Smi	IC50
COc1cc2c(Nc3cccc(OC)c3Cl)c(C#N)cnc2cc1OCCON1CCN(C)CC1	37 nM
COc1cc2c(Nc3cccc(OC)c3F)c(C#N)cnc2cc1OCCON1CCN(C)CC1	30 nM
COc1cc(Cl)ccc1Nc1c(C#N)cnc2cc(OCCON3CCN(C)CC3)c(OC)cc12	10 nM
COc1cc(Nc2c(C#N)cnc3cc(OCCON4CCN(C)CC4)c(OC)cc23)c(F)cc1Cl	2 nM

---

Test summary: Metabolic stability in human hepatocytes
Run conditions: hepatocytes

Compound	remaining at 0.5 h
COc1ccc(CCN(C)CCCC(C#N)(c2ccc(OC)c(OC)c2)C(C)C)cc1OC (centres unmarked) [Verapamil, reference compound]	35.6%
COc1cc(Nc2c(C#N)cnc3cc(OCCCN4CCN(C)CC4)c(OC)cc23)c(Cl)cc1Cl [Bosutinib, bosutinib, reference compound]	79.3%

---

Test summary: Metabolic stability in rat hepatocytes
Format: in vitro ADME
Run conditions: rat hepatocytes
Attribute measured: half-life

Smi	Attribute measured	Result
COc1cc(Nc2c(C#N)cnc3cc(OCCON4CCN(C)CC4)c(OC)cc23)c(F)cc1Cl	half-life	12.3 min

---

Measured remaining at 1 h values are reported for all entries that follow.
Test summary: Metabolic stability in human hepatocytes
Run conditions: hepatocytes

Compound	remaining at 1 h
COc1cc(Nc2c(C#N)cnc3cc(OCCCN4CCN(C)CC4)c(OC)cc23)c(Cl)cc1Cl [Bosutinib, bosutinib, reference compound]	54%
COc1ccc(CCN(C)CCCC(C#N)(c2ccc(OC)c(OC)c2)C(C)C)cc1OC (centres unmarked) [Verapamil, reference compound]	17.7%

---

Test summary: MDCKII-MDR1 permeability
Run conditions: dog, MDCK-MDR1, pH 7.4
Attribute measured: efflux ratio at 1 µM

Compound	Result
COc1cc(Nc2c(C#N)cnc3cc(OCCON4CCN(C)CC4)c(OC)cc23)c(F)cc1Cl [Compound 15]	26.5

---

Test summary: MDCKII-MDR1 permeability
Run conditions: dog, MDCK-MDR1, pH 7.4
Attribute measured: Papp B→A at 2 h, 1 µM (×10⁻⁶ cm/s)

Smi	Quantity unit	Result
COc1cc(Nc2c(C#N)cnc3cc(OCCON4CCN(C)CC4)c(OC)cc23)c(F)cc1Cl	×10⁻⁶ cm/s	19.3

---

Test summary: Metabolic stability in mouse hepatocytes
Assay type: in vitro ADME
Run conditions: 0.5 min, read-out: Remaining Percentages
Attribute measured: remaining at 0.5 min (%)

Smi	Attribute measured	Quantity unit	Result
COc1cc(Cl)ccc1Nc1c(C#N)cnc2cc(OCCON3CCN(C)CC3)c(OC)cc12	remaining at 0.5 min	%	100

---

Target or system: BCR-ABL1 wt (Homo sapiens, UniProt P00519)
Construct: called BCR-ABL1 in the text
Test summary: KinaseProfiler radiometric kinase assay, BCR-ABL1 wt
Run conditions: [ATP] = 10 μM; mean of n = 2

Molecule	IC50
COc1cc(Nc2c(C#N)cnc3cc(OCCON4CCN(C)CC4)c(OC)cc23)c(F)cc1Cl [Compound 15]	1 nM

---

Test summary: Plasma protein binding by equilibrium dialysis, human plasma
Assay type: in vitro ADME
Run conditions: human plasma; read-out: % Bound (converted)
Attribute measured: fraction unbound at 6 h, 5 µM

Compound	Attribute measured	Result
CC(=O)N1CCN(c2ccc(OCC3COC(Cn4ccnc4)(c4ccc(Cl)cc4Cl)O3)cc2)CC1 (stereo not shown) [Ketoconazole]	fraction unbound at 6 h, 5 µM	0.008

---

Test summary: Metabolic stability in rat liver microsomes
Type: in vitro ADME
Run conditions: rat liver microsomes

Molecule	half-life at 1 µM
COc1cc(Nc2c(C#N)cnc3cc(OCCON4CCN(C)CC4)c(OC)cc23)c(F)cc1Cl [Compound 15]	4.9 min
